biological target: D2 receptors (Homo sapiens, UniProt P14416); assay: Dopamine D2 binding assay (human)
Sequence (P14416 whole entry): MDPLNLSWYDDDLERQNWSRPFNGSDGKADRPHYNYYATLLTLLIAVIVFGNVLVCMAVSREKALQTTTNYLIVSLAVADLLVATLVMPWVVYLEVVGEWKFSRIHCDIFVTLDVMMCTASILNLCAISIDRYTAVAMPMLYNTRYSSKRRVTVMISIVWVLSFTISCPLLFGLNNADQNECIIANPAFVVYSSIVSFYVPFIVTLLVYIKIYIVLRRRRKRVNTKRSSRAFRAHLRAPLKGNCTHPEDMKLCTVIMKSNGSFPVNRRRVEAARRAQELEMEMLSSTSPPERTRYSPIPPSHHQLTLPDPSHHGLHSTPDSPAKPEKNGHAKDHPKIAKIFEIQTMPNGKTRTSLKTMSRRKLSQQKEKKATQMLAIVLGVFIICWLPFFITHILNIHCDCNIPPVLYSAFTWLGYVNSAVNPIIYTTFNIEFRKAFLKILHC
MEASURE: Ki

Using the record for COc1ccc2c(c1)N=C(N1CCN(CC(C)(C)C(=O)O)CC1)c1cc(C)ccc1O2 , report its Ki.
> 10000 nM

Try the molecule Cc1ccc2c(c1)Oc1ccccc1N=C2N1CCN(CC(C)(C)C(=O)O)CC1
> 10000 nM

Try the molecule Cc1ccc2c(c1)N=C(N1CCN(CC(C)(C)C(=O)O)CC1)c1ccc(C)cc1O2
> 10000 nM

Try the molecule Cc1ccc2c(c1)C(N1CCN(CC(C)(C)C(=O)O)CC1)=Nc1cc(Br)ccc1O2
360 nM

Try the molecule COc1ccc2c(c1)C(N1CCN(CC(C)(C)C(=O)O)CC1)=Nc1ccc(C)cc1O2
4030 nM

Try the molecule COc1ccc2c(c1)Oc1ccccc1N=C2N1CCN(CC(C)(C)C(=O)O)CC1
> 10000 nM

Try the molecule COc1ccc2c(c1)N=C(N1CCN(CC(C)(C)C(=O)O)CC1)c1cc(OC)ccc1O2
> 10000 nM

Try the molecule CC(C)(CN1CCN(C2=Nc3ccccc3Oc3ccccc32)CC1)C(=O)O
> 10000 nM

Try the molecule Cc1ccc2c(c1)N=C(N1CCN(CC(C)(C)C(=O)O)CC1)c1cc(C)ccc1O2
1590 nM

Try the molecule CC(C)(CN1CCN(C2=Nc3ccccc3Oc3ccc(Br)cc32)CC1)C(=O)O
434 nM

Try the molecule COc1ccc2c(c1)N=C(N1CCN(CC(C)(C)C(=O)O)CC1)c1ccccc1O2
> 10000 nM

Try the molecule COc1ccc2c(c1)C(N1CCN(CC(C)(C)C(=O)O)CC1)=Nc1cc(Br)ccc1O2
170 nM

Try the molecule CC(C)(CN1CCN(C2=Nc3cc(Br)ccc3Oc3ccccc32)CC1)C(=O)O
883 nM

Try the molecule COc1ccc2c(c1)Oc1ccccc1C(N1CCN(CC(C)(C)C(=O)O)CC1)=N2
> 10000 nM

Try the molecule O=C(O)C1(CN2CCN(C3=Nc4ccccc4Oc4ccccc43)CC2)CC1
> 10000 nM

Try the molecule O=C(O)C1(CN2CCN(C3=Nc4ccccc4Oc4ccc(Br)cc43)CC2)CC1
53.3 nM

Try the molecule O=C(O)C1(CN2CCN(C3=Nc4ccccc4Oc4ccc(Cl)cc43)CC2)CC1
222 nM
